# System Tested: CyP-D (Rattus norvegicus, UniProt P29117)
# Construct: Mitochondria were isolated from fresh rat liver; from tissue; host or cells: rat liver mitochondria
# Sequence (P29117 30-206): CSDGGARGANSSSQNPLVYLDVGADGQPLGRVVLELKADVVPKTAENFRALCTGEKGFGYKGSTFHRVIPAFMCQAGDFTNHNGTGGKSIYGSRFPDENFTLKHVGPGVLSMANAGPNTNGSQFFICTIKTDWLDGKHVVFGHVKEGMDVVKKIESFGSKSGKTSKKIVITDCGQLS
# Assay type: biochemical
# Condition Notes: mitochondria isolated from rat liver, 190 μM calcium, swelling as decline in A540
Metric: CYP-D Inhibition (% Potency Vs CsA) (%)

{"Compound": "CCC1NC(=O)C(C(O)C(C)CCCO)N(C)C(=O)C(C(C)C)N(C)C(=O)C(CC(C)C)N(C)C(=O)C(CC(C)C)N(C)C(=O)C(C)NC(=O)C(C)NC(=O)C(CC(C)C)N(C)C(=O)C(C(C)C)NC(=O)C(CC(C)C)N(C)C(=O)CN(C)C1=O (stereo not drawn)", "Reported Measurement": 78.0}
{"Compound": "CCC1NC(=O)C(C(O)C(C)CCCCC(=O)N(CC)CC)N(C)C(=O)C(C(C)C)N(C)C(=O)C(CC(C)C)N(C)C(=O)C(CC(C)C)N(C)C(=O)C(C)NC(=O)C(C)NC(=O)C(CC(C)C)N(C)C(=O)C(C(C)C)NC(=O)C(CC(C)C)N(C)C(=O)CN(C)C1=O (stereo not drawn)", "Reported Measurement": 128.7}
{"Compound": "CCC(O)CCCC(C)C(O)C1C(=O)NC(CC)C(=O)N(C)CC(=O)N(C)C(CC(C)C)C(=O)NC(C(C)C)C(=O)N(C)C(CC(C)C)C(=O)NC(C)C(=O)NC(C)C(=O)N(C)C(CC(C)C)C(=O)N(C)C(CC(C)C)C(=O)N(C)C(C(C)C)C(=O)N1C (stereo not drawn)", "Reported Measurement": 143.1}
{"Compound": "CCC1NC(=O)C(C(O)C(C)CC=CCCCCCCNC(=O)OC(C)(C)C)N(C)C(=O)C(C(C)C)N(C)C(=O)C(CC(C)C)N(C)C(=O)C(CC(C)C)N(C)C(=O)C(C)NC(=O)C(C)NC(=O)C(CC(C)C)N(C)C(=O)C(C(C)C)NC(=O)C(CC(C)C)N(C)C(=O)CN(C)C1=O (stereo not drawn)", "Reported Measurement": 9.4}
{"Compound": "CCC1NC(=O)C(C(O)C(C)CC(O)CO)N(C)C(=O)C(C(C)C)N(C)C(=O)C(CC(C)C)N(C)C(=O)C(CC(C)C)N(C)C(=O)C(C)NC(=O)C(C)NC(=O)C(CC(C)C)N(C)C(=O)C(C(C)C)NC(=O)C(CC(C)C)N(C)C(=O)CN(C)C1=O (stereo not drawn)", "Reported Measurement": 24.6}
{"Compound": "CCC1NC(=O)C(C(O)C(C)CCCCCCCCO)N(C)C(=O)C(C(C)C)N(C)C(=O)C(CC(C)C)N(C)C(=O)C(CC(C)C)N(C)C(=O)C(C)NC(=O)C(C)NC(=O)C(CC(C)C)N(C)C(=O)C(C(C)C)NC(=O)C(CC(C)C)N(C)C(=O)CN(C)C1=O (stereo not drawn)", "Reported Measurement": 106.7}
{"Compound": "CCC1NC(=O)C(C(O)C(C)CC=CCCCCC(N)=O)N(C)C(=O)C(C(C)C)N(C)C(=O)C(CC(C)C)N(C)C(=O)C(CC(C)C)N(C)C(=O)C(C)NC(=O)C(C)NC(=O)C(CC(C)C)N(C)C(=O)C(C(C)C)NC(=O)C(CC(C)C)N(C)C(=O)CN(C)C1=O (stereo not drawn)", "Reported Measurement": 98.9}
{"Compound": "CCC1NC(=O)C(C(O)C(C)CCCC(C)O)N(C)C(=O)C(C(C)C)N(C)C(=O)C(CC(C)C)N(C)C(=O)C(CC(C)C)N(C)C(=O)C(C)NC(=O)C(C)NC(=O)C(CC(C)C)N(C)C(=O)C(C(C)C)NC(=O)C(CC(C)C)N(C)C(=O)CN(C)C1=O (stereo not drawn)", "Reported Measurement": 162.7}
{"Compound": "C=CCC(O)CCCC(C)C(O)C1C(=O)NC(CC)C(=O)N(C)CC(=O)N(C)C(CC(C)C)C(=O)NC(C(C)C)C(=O)N(C)C(CC(C)C)C(=O)NC(C)C(=O)NC(C)C(=O)N(C)C(CC(C)C)C(=O)N(C)C(CC(C)C)C(=O)N(C)C(C(C)C)C(=O)N1C (stereo not drawn)", "Reported Measurement": 143.6}

###

# System Tested: CyP-D (Rattus norvegicus)
# Construct: Mitochondria were isolated from fresh rat liver; from tissue; host or cells: rat liver mitochondria
# Format: biochemical
# Condition Notes: mitochondria isolated from rat liver, 190 μM calcium, swelling as decline in A540
# Method: A mitochondria swelling assay was used to measure the efficacy of NICAMs in blocking CyP-D and mitochondrial permeability transition. […] In general, mitochondria isolated from rat liver were exposed to calcium to induce MPTP opening in the absence or presence of test compounds, and calcium-induced swelling was measured as a reduction in light absorbance at 540 nm. […]

{"Compound": "CCC1NC(=O)C(C(O)C(C)CC=CCCC#N)N(C)C(=O)C(C(C)C)N(C)C(=O)C(CC(C)C)N(C)C(=O)C(CC(C)C)N(C)C(=O)C(C)NC(=O)C(C)NC(=O)C(CC(C)C)N(C)C(=O)C(C(C)C)NC(=O)C(CC(C)C)N(C)C(=O)CN(C)C1=O (stereo not shown)", "CYP-D Inhibition (% Potency Vs CsA) (%)": 123.2}
{"Compound": "CCC1NC(=O)C(C(O)C(C)CC=CCCCC(=O)N(C)C)N(C)C(=O)C(C(C)C)N(C)C(=O)C(CC(C)C)N(C)C(=O)C(CC(C)C)N(C)C(=O)C(C)NC(=O)C(C)NC(=O)C(CC(C)C)N(C)C(=O)C(C(C)C)NC(=O)C(CC(C)C)N(C)C(=O)CN(C)C1=O (stereo not shown)", "CYP-D Inhibition (% Potency Vs CsA) (%)": 82.2}
{"Compound": "CCC1NC(=O)C(C(O)C(C)CC=CCCCCC(=O)N2CCOCC2)N(C)C(=O)C(C(C)C)N(C)C(=O)C(CC(C)C)N(C)C(=O)C(CC(C)C)N(C)C(=O)C(C)NC(=O)C(C)NC(=O)C(CC(C)C)N(C)C(=O)C(C(C)C)NC(=O)C(CC(C)C)N(C)C(=O)CN(C)C1=O (stereo not shown)", "CYP-D Inhibition (% Potency Vs CsA) (%)": 91.1}
{"Compound": "CCC1NC(=O)C(C(O)C(C)CC=CCCCCC(=O)N(C)C)N(C)C(=O)C(C(C)C)N(C)C(=O)C(CC(C)C)N(C)C(=O)C(CC(C)C)N(C)C(=O)C(C)NC(=O)C(C)NC(=O)C(CC(C)C)N(C)C(=O)C(C(C)C)NC(=O)C(CC(C)C)N(C)C(=O)CN(C)C1=O (stereo not shown)", "CYP-D Inhibition (% Potency Vs CsA) (%)": 119.4}

###

# Tested on: human lymphocytes
# Assay Comment: Immunosuppressive potency: inhibition of proliferation of anti-CD3 stimulated human lymphocytes (CFSE, flow cytometry)
# Type: cell-based
# Condition Notes: relative potency: IC50 for inhibition of cell division normalized to CsA, 3 days incubation
Catalogue of Immunosuppression (% Relative to CsA) values
Metric: Immunosuppression (% Relative to CsA) (%)

{"Compound": "CCC1NC(=O)C(C(O)C(C)CCCCC(=O)N(CC)CC)N(C)C(=O)C(C(C)C)N(C)C(=O)C(CC(C)C)N(C)C(=O)C(CC(C)C)N(C)C(=O)C(C)NC(=O)C(C)NC(=O)C(CC(C)C)N(C)C(=O)C(C(C)C)NC(=O)C(CC(C)C)N(C)C(=O)CN(C)C1=O (stereo not shown)", "System Tested": "human lymphocytes", "Value Qualifier": "=", "Reported Measurement": 2}
{"Compound": "CCC1NC(=O)C(C(O)C(C)CCCCC(=O)N(C)C)N(C)C(=O)C(C(C)C)N(C)C(=O)C(CC(C)C)N(C)C(=O)C(CC(C)C)N(C)C(=O)C(C)NC(=O)C(C)NC(=O)C(CC(C)C)N(C)C(=O)C(C(C)C)NC(=O)C(CC(C)C)N(C)C(=O)CN(C)C1=O (stereo not shown)", "System Tested": "human lymphocytes", "Value Qualifier": "<", "Reported Measurement": 1}
{"Compound": "CCCCCCCC=CCC(C)C(O)C1C(=O)NC(CC)C(=O)N(C)CC(=O)N(C)C(CC(C)C)C(=O)NC(C(C)C)C(=O)N(C)C(CC(C)C)C(=O)NC(C)C(=O)NC(C)C(=O)N(C)C(CC(C)C)C(=O)N(C)C(CC(C)C)C(=O)N(C)C(C(C)C)C(=O)N1C (stereo not shown)", "System Tested": "human lymphocytes", "Value Qualifier": "=", "Reported Measurement": 1}
{"Compound": "C=CCC(O)CCCC(C)C(O)C1C(=O)NC(CC)C(=O)N(C)CC(=O)N(C)C(CC(C)C)C(=O)NC(C(C)C)C(=O)N(C)C(CC(C)C)C(=O)NC(C)C(=O)NC(C)C(=O)N(C)C(CC(C)C)C(=O)N(C)C(CC(C)C)C(=O)N(C)C(C(C)C)C(=O)N1C (stereo not shown)", "System Tested": "human lymphocytes", "Value Qualifier": "=", "Reported Measurement": 3}
{"Compound": "CCC1NC(=O)C(C(O)C(C)CC=CCCC#N)N(C)C(=O)C(C(C)C)N(C)C(=O)C(CC(C)C)N(C)C(=O)C(CC(C)C)N(C)C(=O)C(C)NC(=O)C(C)NC(=O)C(CC(C)C)N(C)C(=O)C(C(C)C)NC(=O)C(CC(C)C)N(C)C(=O)CN(C)C1=O (stereo not shown)", "System Tested": "human lymphocytes", "Value Qualifier": "=", "Reported Measurement": 2}
{"Compound": "CCC1NC(=O)C(C(O)C(C)CC=CCCC(=O)N(C)C)N(C)C(=O)C(C(C)C)N(C)C(=O)C(CC(C)C)N(C)C(=O)C(CC(C)C)N(C)C(=O)C(C)NC(=O)C(C)NC(=O)C(CC(C)C)N(C)C(=O)C(C(C)C)NC(=O)C(CC(C)C)N(C)C(=O)CN(C)C1=O (stereo not shown)", "System Tested": "human lymphocytes", "Value Qualifier": "<", "Reported Measurement": 1}
{"Compound": "CCC1NC(=O)C(C(O)C(C)CC=CCCCC(=O)N(C)C)N(C)C(=O)C(C(C)C)N(C)C(=O)C(CC(C)C)N(C)C(=O)C(CC(C)C)N(C)C(=O)C(C)NC(=O)C(C)NC(=O)C(CC(C)C)N(C)C(=O)C(C(C)C)NC(=O)C(CC(C)C)N(C)C(=O)CN(C)C1=O (stereo not shown)", "System Tested": "human lymphocytes", "Value Qualifier": "=", "Reported Measurement": 1}

Cited source for all entries: patent US20130190223A1
